# melting point values compiled below

Field: example entries. Status: answers known.
In plain terms, COC(=O)[C@]1(C)CCC[C@]2(C)c3cc(Br)c4nc(-c5ccc(OC)cc5)[nH]c4c3CCC12 (some centres unmarked) has a documented melting point of 140 to 142 °C

In plain terms, COC(=O)[C@]1(C)CCC[C@]2(C)c3cc(-c4cc(OC)c(OC)c(OC)c4)c4nc(-c5ccccc5F)[nH]c4c3CCC12 (some centres unmarked) has a documented melting point of 155 to 157 °C

In plain terms, COC(=O)[C@]1(C)CCC[C@]2(C)c3cc(-c4cc(OC)c(OC)c(OC)c4)c4nc(-c5cccc(F)c5)[nH]c4c3CCC12 (some centres unmarked) has a documented melting point of 156 to 158 °C

In plain terms, COC(=O)[C@]1(C)CCC[C@]2(C)c3cc(-c4cc(OC)c(OC)c(OC)c4)c4nc(-c5ccc(OC)cc5)[nH]c4c3CCC12 (some centres unmarked) has a documented melting point of 153 to 155 °C

---
In plain terms, COC(=O)[C@]1(C)CCC[C@]2(C)c3cc(Br)c4nc(-c5ccc(F)cc5)[nH]c4c3CCC12 (some centres unmarked) has a documented melting point of 149 to 151 °C

In plain terms, COC(=O)[C@]1(C)CCC[C@]2(C)c3cc(-c4cc(OC)c(OC)c(OC)c4)c4nc(-c5c[nH]c6ccccc56)[nH]c4c3CCC12 (some centres unmarked) has a documented melting point of 199 to 201 °C

In plain terms, COC(=O)[C@]1(C)CCC[C@]2(C)c3cc(Br)c4nc(-c5c[nH]c6ccccc56)[nH]c4c3CCC12 (some centres unmarked) has a documented melting point of 139 to 140 °C

In plain terms, COC(=O)[C@]1(C)CCC[C@]2(C)c3cc(-c4cc(OC)c(OC)c(OC)c4)c4nc(-c5ccc(Br)cc5)[nH]c4c3CCC12 (some centres unmarked) has a documented melting point of 150 to 152 °C
